- assayDetails: anti-His antibody binders, primary screen, artefact control for SMM control protein annotation, biochemical, small-molecule microarray, 635 nm fluorescence (AID 1128);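 further: score merges feature fluorescence with signal-to-noise for each printed compound spot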
- measurementParameters: anti-His Alexa647 antibody binding, higher = more signal
Mark condition met for reported composite z-score of 0.4 or greater; mark condition not met for anything smaller.

For orientation, consider the following solved cases.
CC(C)(C)OC(=O)CC[C@]1(C(=O)N2CCOCC2)N=C(c2ccc(OCCCO)cc2)O[C@H]1c1ccccc1CN=[N+]=[N-]; condition met
CN(C)CCCC[C@@H]1NC(=O)[C@@H]2C[C@H](C(=O)NCc3ccc(F)cc3)[C@H](c3ccc(O)cc3)N2C1=O; condition not met
COCCOC(=O)N1C(=O)[C@@]2(c3cc(C#CCC(C(=O)OC)C(=O)OC)ccc31)[C@H](C(N)=O)[C@H]1C(=O)O[C@H](c3ccccc3)[C@H](c3ccccc3)N1[C@@H]2c1ccc(OCCO)cc1; condition met
COC(=O)[C@]1(CO)N=C(c2ccc(OCCCO)cc2)O[C@@H]1c1ccccc1CN=[N+]=[N-]; condition met

Continue with the compound presented below.
Exercise: Is reported composite z-score greater than or equal to 0.4 here: O=C1C2C=CC(C(O)C(c3ccccc3)c3ccccc3)N(Nc3ccccc3)C2C(=O)N1c1ccccc1 (stereo not given)
Key: condition met

----------
// z-score lookup, one value per entry
- assayDetails: FRG1 promoter luciferase signal modulators, primary screen, FRG1 inhibition for FSHD, cell-based, C2C12 myotubes, firefly/Renilla luciferase, luminescence (AID 1084)
- measurementParameters: higher = more signal, called active from +8 up or from −8 down
Activity calls are given as the source filed them.

Exercise: Using the record for COc1cccc(OC)c1C(=O)O[C@H]1[C@@H]2OC(=O)[C@H](Cc3cccc(Br)c3)C/C=C/C[C@@H](Cc3cccc(Br)c3)C(=O)O[C@H]2[C@@H](OC)O[C@@H]1CO , report its z-score.
Key: -0.199 (inactive)

----------
- Tested on: Chordin-like protein 2 (CHRDL2)
- assayDetails: CHRDL2 small-molecule binders, primary screen, biochemical, small-molecule microarray, 635 nm fluorescence (AID 1126);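 further: printed compound slides probed with Chrdl2 protein at 4 µg/mL for 1 h at 4 C; score merges 667 nm emission intensity with signal to noise over three replicate slides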
- measurementParameters: small-molecule microarray binding, fluorescence 635 nm; higher = more signal
measuredQuantity: composite z-score
Give only the figure.

# example entries with known answers
COCCOC(=O)N1C(=O)[C@@]2(c3cc(C#CCNC(N)=O)ccc31)[C@H](C(=O)NC[C@H](O)c1ccccc1)[C@H]1C(=O)O[C@H](c3ccccc3)[C@H](c3ccccc3)N1[C@@H]2c1ccc(OCCO)cc1; 0.285
CCCC[C@H]1OB(O)C[C@H]2C1=C(C)C[C@H]1C(=O)C=CC(=O)[C@H]12; 0.821

Exercise: Please report the recorded composite z-score for NCCCC[C@@H]1NC(=O)[C@H]2C[C@@H](C(=O)O)[C@@H](c3cccc(OCCO)c3)N2C1=O .
Key: 1.39

----------
- assayDetails: PSAC antagonists in infected red cells, primary screen, cell-based, P. falciparum Indochina, OD700, 2 h (AID 1155);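 further: lysis reports solute entry through the parasite surface anion channel PSAC; channel blockers reduce lysis of infected cells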
- measurementParameters: P. falciparum Indochina infected erythrocytes, osmotic lysis OD700, called active from +8 up or from −8 down
Calls of active or inactive are those of the source.
// allowed return values: Y (active), N (inactive)

CCCC[C@@H](O)C1=C(COC)Cn2c(=O)n(-c3ccccc3)c(=O)n2[C@H]1CO; N
CCCCN1CC=CC23O[C@@H]4C=CCOC(=O)[C@@H]4[C@H]2C(=O)N(CCO)[C@@H]3C1=O (stereo partly specified); N
C=C(C(=O)CC[C@@H](OC(C)=O)c1cccc(OCCO)c1)C(C)C; N

Next:
Exercise: // return assay outcome for COCCOC(=O)N1C(=O)[C@@]2(c3cc(C#CC4=CCCCC4)ccc31)[C@H](c1ccc(OCCO)cc1)N1[C@H](c3ccccc3)[C@H](c3ccccc3)OC(=O)[C@H]1[C@@H]2C(=O)N1CCCCCCC1
Key: N

----------
- assayDetails: binders of probe aFGF2 on microarray, primary screen, stem cell growth factor project, biochemical, small-molecule microarray, fluorescence 635/667 (AID 1067);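 further: measures binding of biotinylated aFGF2 protein to printed compounds on slides; z-score merges feature fluorescence and signal-to-noise across triplicate slides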
- measurementParameters: higher = more signal
measuredQuantity: composite z-score
Output spec: single numeric token, no unit.

Solved entries (count: 5):
COCCOC(=O)N1C(=O)[C@@]2(c3cc(C#CC4(O)CCCCCC4)ccc31)[C@H](C(=O)NC[C@H](O)c1ccccc1)[C@H]1C(=O)O[C@H](c3ccccc3)[C@H](c3ccccc3)N1[C@@H]2c1ccc(O)cc1; -0.0193
CC(C)N1CC=CC23O[C@@H]4C=CCCOC(=O)C4[C@H]2C(=O)N(CCCCCO)[C@@H]3C1=O (stereo partly specified); -0.103
[N-]=[N+]=Nc1ccccc1[C@@H]1OC(c2ccc(OCCCO)cc2)=N[C@]1(Cc1ccccc1)C(N)=O; -0.0543
C=CCC(OC(C)=O)[C@@H]1[C@@H](N(Cc2cc3ccccc3o2)C(=O)Cc2ccc(OC)cc2)c2cc(OCCCO)ccc2N1C(=O)Cc1ccc(OC)cc1 (stereo partly specified); -0.0459
CCOC(=O)C[C@H]1[C@H](OC(=O)c2ccc(C(=O)c3ccccc3)cc2)[C@@H](NC(=O)c2ccc3ccccc3c2)c2cc(OCCCO)ccc2N1C(=O)c1ccc2ccccc2n1; -0.101

Exercise: Query (molecule): CC1(C)OC[C@@]23C=C(Br)[C@@H](C[C@H]12)[C@@]1(CO1)C3=O ; field requested: composite z-score
Key: -0.105

Exercise: What do we get for O=C1N(CCS(=O)(=O)c2ccccc2)c2ccccc2[C@@H]2OC(c3ccc(OCCCO)cc3)=N[C@]12CCS(=O)(=O)c1ccccc1 ?
Key: 0.0069

Exercise: Next record, please: COc1ccc([Si](C)(C)[C@H]2[C@H](CCO)O[C@@]3(C(=O)N(Cc4ccccc4)c4ccc(N(C=O)c5ccccc5)cc43)[C@@H]2C)cc1
Key: -0.103

Exercise: Cool, now COC(=O)c1ccc([C@H](NC(=O)c2ccccc2)[C@]2(C)C[C@H]2C2CCCCC2)cc1
Key: 0.056

Exercise: Further, for CC(C)C[C@@H]1NC(=O)[C@H]2C[C@@H](C(=O)NCCCCCNC(=O)CS)[C@@H](c3ccc(O)cc3)N2C1=O ?
Key: 0.283

Exercise: Same again, this time with COC(=O)[C@@]1(Cc2ccccc2)[C@H]2c3cc(C(=O)N4CCCC4)n(Cc4ccc(C(F)(F)F)nc4)c3C[C@H]2CN1C(=O)c1ccccc1
Key: 0.237

Exercise: Same for CN(C)CCCC[C@@H]1NC(=O)[C@@H]2C[C@H](C(=O)NCCCCCCNC(=O)CS)[C@H](c3cccc(OCCO)c3)N2C1=O
Key: -0.0621

Exercise: Now give it for CCCCC(O)C1C=CC2C(=O)NC(=O)C2N1Nc1ccccn1 (stereo unspecified) too.
Key: -0.0691

Exercise: Next up: O=C1C2C=CC(C(O)c3cccc(O)c3)N(Nc3ccccc3F)C2C(=O)N1c1ccccc1 (stereo unspecified)
Key: -0.0005

Exercise: Now consider CN1C(=O)[C@]2(CCS(=O)(=O)c3ccccc3)N=C(c3ccc(OCCCO)cc3)O[C@@H]2c2ccccc21 .
Key: -0.0984

Exercise: Can you check C=CCNC(=O)[C@@H]1[C@H]2C(=O)O[C@H](c3ccccc3)[C@H](c3ccccc3)N2[C@H](c2ccc(O)cc2)[C@@]12C(=O)Nc1ccc(C#CC3(O)CCCCCC3)cc12 next?
Key: -0.1

----------
- assayDetails: small-molecule binders of probe aLefty1, primary screen, biochemical, small-molecule microarray, 635/667 nm fluorescence (AID 1153);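 further: score merges spot fluorescence with signal-to-noise ratio from the scanned slide images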
- measurementParameters: higher = more signal
Response field class: enum, chosen by comparing composite z-score against range A = under 0.03, range B = from 0.03 up to 0.2, range C = 0.2 and over

Reference set (5 entries):
CCOC(=O)C[C@H]1[C@H](OC(=O)c2ccc(-c3ccccc3)cc2)[C@@H](NC(=O)c2ccc3ccccc3c2)c2cc(OCCCO)ccc2N1C(=O)c1ccccc1; range B
C=CCOC(=O)[C@H]1[C@@H]2C(=O)O[C@@H](c3ccccc3)[C@@H](c3ccccc3)N2[C@@H](c2ccc(OCCOC(=O)[C@@H]3C[C@@H]4C(=O)N[C@@H](CC(C)C)C(=O)N4[C@@H]3c3ccc(O)cc3)cc2)[C@]12C(=O)Nc1ccc(I)cc12; range B
COCCOC(=O)N1C(=O)[C@@]2(c3cc(C#CCCO)ccc31)[C@H](C(=O)N1CCN(c3ncccn3)CC1)[C@H]1C(=O)O[C@H](c3ccccc3)[C@H](c3ccccc3)N1[C@@H]2c1ccc(O)cc1; range A
CCCCC(=C=CC[C@H](O)c1ccc(OCCO)cc1)C[C@H](O)c1ccccn1; range A
C[N+](C)(C)CCCC[C@@H]1NC(=O)[C@H]2C[C@@H](C(=O)NCCCCCNC(=O)CS)[C@@H](c3ccc(O)cc3)N2C1=O; range A

Here is another compound to look at.
Exercise: Would you mind sorting CCCC=C(CCC)[C@@H](NC(=O)c1ccco1)c1ccc(C(=O)OC)cc1 into the appropriate category?
Key: range C
